- Method: Selectivity index, ratio of CC50 for African green monkey Vero cells to MIC for antimycobacterial activity against Mycobacterium tuberculosis H37Ra ATCC 25197
- Assay type: toxicity
- Condition Info: read-out: Selectivity Index
Outcome Measure: selectivity ratio
I'd appreciate a reply containing only the number, no unit.

Solved entries:
O=C1Oc2ccccc2N/C1=C\C(=O)c1cccc(Cl)c1 ... 120
COC(=O)/C=C1\Nc2ccc(Cl)cc2OC1=O ... 202
Cc1ccc(C(=O)/C=C2\Nc3ccccc3OC2=O)cc1 ... 115

// sample COC(=O)/C=C1\Nc2cc(Cl)ccc2OC1=O , its selectivity ratio was 26

selectivity ratio measured on COC(=O)CC1Nc2ccccc2OC1=O (configuration not stated) = 43

For O=C(NNC(=O)c1ccncc1)C(=O)Nc1cc(Cl)ccc1O the molecule record lists selectivity ratio as 3320

The molecule identified as O=C1Oc2ccccc2N/C1=C\C(=O)c1ccccc1Cl registered its selectivity ratio at 118

Where these numbers come from: ChEMBL document CHEMBL4433266
